These entries and their values trace back to patent US9469608B2.

- STUDY SYSTEM: UniProt P00734
- PROTOCOL NOTES: In vitro assay for determining proteinase inhibition (thrombin Ki)
- Type: biochemical
- CONDITIONS: 25° C., 0.05 M TRIS buffer pH 7.4, 0.15 M NaCl, 0.1% PEG; competitive inhibition assumed
QUANTITY KIND: Ki (nM)
// note: answer is a bare numeric in nM

Given the entry O=C(NCc1cc(Cl)ccc1-n1cnnn1)[C@@H]1CCCN1C(=O)C1(O)CCc2cccnc21 (stereo partly shown) [Compound 36-3] , what Ki was observed with UniProt P00734? 2.5

Item NCc1ccc(Cl)cc1CNC(=O)[C@@H]1CCN1C(=O)C1CNc2ccccc21 (stereo partly shown) [Compound 35-7, bis(2,2,2-trifluoroacetate)] with UniProt P00734 - Ki? 110

Checklist item: Ki tested on UniProt P00734, entry NCc1ccc(Cl)cc1CNC(=O)[C@@H]1CCCN1C(=O)c1cc(-c2cccnc2)c[nH]1 [Compound 14-5, bis(2,2,2-trifluoroacetate)] , value? 22

Param readout = Ki; param system = UniProt P00734; param query = NCc1ccc(Cl)cc1CNC(=O)[C@@H]1CCCN1C(=O)C1OCc2ccccc21 (stereo partly shown) [Compound 21-6] ; response: value 15

Recorded Ki for NCc1ccc(Cl)cc1CNC(=O)[C@@H]1CCCN1C(=O)C1(O)CCc2ccncc21 (stereo partly shown) [Compound 28-6, bis (2,2,2-trifluoroacetate)] with UniProt P00734, please? 16

Identify the measured Ki of NCc1ccc(Cl)cc1CNC(=O)[C@@H]1CCCN1C(=O)C1NCc2ccccc21 (single isomer, unassigned) [Compound 23-4b, bis(2,2,2-trifluoroacetate)] for UniProt P00734. 1.1

Enter reported Ki observed with UniProt P00734 for NCc1ccc(Cl)cc1CNC(=O)[C@@H]1CCCN1C(=O)c1cc(C(O)c2cccnc2)c[nH]1 (stereo partly shown) [Compound 9-2] 13

---

- STUDY SYSTEM: human α-thrombin (Homo sapiens (Human), UniProt P00734)
- PROTOCOL NOTES: In vitro assay for determining proteinase inhibition (thrombin Ki)
- Format: biochemical
- CONDITIONS: 25° C., 0.05 M TRIS buffer pH 7.4, 0.15 M NaCl, 0.1% PEG; competitive inhibition assumed
Listing of entries alongside the reported log10 Ki.
All values: log10 Ki [nM].

>  <COMPOUND>
NCc1ccc(Cl)cc1CNC(=O)[C@@H]1CCCN1C(=O)C1COc2ccccc21 (stereo partly shown) [Compound 24-8]

>  <NUMERIC RESULT>
0.96

$$$$
>  <COMPOUND>
NCc1ccc(Cl)cc1CNC(=O)[C@@H]1CCCN1C(=O)C1(O)CCCc2ncccc21 (stereo partly shown) [Compound 30-6, bis(2,2,2-trifluoroacetate)]

>  <NUMERIC RESULT>
1.04

$$$$
>  <COMPOUND>
C[C@@]1(C(=O)NCc2cc(Cl)ccc2CN)CCCN1C(=O)c1ccc(Cl)[nH]1 [Compound 44]

>  <NUMERIC RESULT>
2.02

$$$$
>  <COMPOUND>
NCc1ccc(Cl)cc1CNC(=O)[C@@H]1CCCN1C(=O)c1cc(-c2ccccn2)c[nH]1 [Compound 15-8]

>  <NUMERIC RESULT>
1.34

$$$$

Reported log10 Ki for Cc1ccc(C(=O)N2CCC[C@@]2(C)C(=O)NCc2cc(Cl)ccc2CN)[nH]1 [Compound 45] : what is it? 1.97

Which log10 Ki value belongs to NCc1ccc(Cl)cc1CNC(=O)[C@@H]1CCCN1C(=O)C1(O)CCc2cccnc21 (stereo partly shown) [Compound 20-8, (2,2,2-trifluoroacetate)] ? 0.89

What measured log10 Ki goes with NCc1ccc(Cl)cc1CNC(=O)[C@@H]1CCCN1C(=O)C1(O)CCCc2cccnc21 (stereo partly shown) [Compound 32-7, bis(2,2,2-trifluoroacetate)] ? 0.59
